# test details: NCI Yeast Anticancer Drug Screen. Data for the wt2 strain (AID 169);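 note: 0% = growth of vehicle-treated yeast cultures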
# stated conditions: S. cerevisiae wt2 strain growth inhibition; at 100.0 µM
About 79,000 compounds went through this panel and 15% of them were active in at least one assay; those are over-represented in the sample as a whole. The source made the active and inactive calls. Cut-off read from the data, not from the text of the source: active = growth inhibition above about 70%; inactive = the rest.
Output constraint: value belongs to active, inactive

O=C(O)c1ccc2cc(Cl)c3ccccc3c2c1    inactive
CC(=O)CC(c1ccccc1)c1c(O)c2ccccc2oc1=O (stereo unspecified)    active
Cc1cccc2c(NCCCN(C)C)c3c([N+](=O)[O-])ccc(C)c3nc12    active
CN(C)CCNc1ccc2ncn3c4ccc(O)cc4c(=O)c1c23    inactive
COc1cc2oc3ccccc3c(=O)c2cc1CSc1ccccc1N    inactive

Please turn your attention to the following entry.
Just curious, what result did O=C1c2ccccc2N2OC3(N4CCCC4)CCCCC3C12c1ccccc1 (stereo unspecified) get here? active

====

# test details: NCI Yeast Anticancer Drug Screen. Data for the mec2-1 strain (AID 157)
# stated conditions: S. cerevisiae mec2-1 strain, at 11.0 µM
Compounds without any hit were thinned out: in the full panel of roughly 79,000, 15% have a hit. Calls of active or inactive are those of the source. Cut-off read from the data, not from the text of the source: active = growth inhibition above about 70%; inactive = the rest.
Output constraint: value belongs to active, inactive

Would you please look over these solved cases?
COC(=O)C(Cc1c[nH]c2ccccc12)N1CN(C)c2ccccc2C1=O (stereo unspecified)    inactive
OB(O)c1ccccc1C#Cc1ccccc1    inactive
CC1C(c2ccccc2)SC(=N)N1C (stereo unspecified)    inactive

Just curious, what result did `CCN(CC)CCNc1ccc2nc(C)n3c4ccc(OC)cc4c(=O)c1c23` get here? inactive

Just curious, what result did `CC/C(=C(\c1ccccc1)c1ccc(OCC[N+](C)(C)C)cc1)c1ccccc1` get here? active

Just curious, what result did O=C1c2ccccc2N2OC3(N4CCCC4)CCCCC3C12c1ccccc1 (stereo unspecified) get here? inactive

Just curious, what result did `COc1cccc(/C=C2\S/C(=N/Nc3nc(-c4ccc([N+](=O)[O-])cc4)cs3)NC2=O)c1O` get here? inactive

Just curious, what result did CCC[CH2][Ge]([CH2]CCC)([CH2]CCC)[O]C(=O)C(O)c1ccccc1 (stereo unspecified) get here? inactive

====

Listed below: growth inhibition values for each entry.
# test details: NCI Yeast Anticancer Drug Screen. Data for the rad50 strain (AID 155);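 note: 0% = growth of vehicle-only cultures of the same strain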
# stated conditions: S. cerevisiae rad50 strain growth inhibition; at 50.0 µM; stronger effect = higher value
# Experimental: Growth inhibition of yeast strains with defined genetic alterations is measured as a screen for potential anti-cancer activity. Selected strains with alterations in DNA damage repair or cell cycle control were exposed to compounds and growth inhibition was measured relative to vehicle treated controls. The strain used in this assay is rad50
This is part of a sample that, as a whole, favours compounds with a hit. Of some 79,000 tested, about 15% had one in any assay.
Give the quantity in %, number only.

# example entries with known answers
c1c[nH]c(CN2CCN(Cc3ncc[nH]3)CC2)n1    97.4
CCCNC(=O)OCc1c(COC(=O)NCCC)c(-c2ccc(Cl)c(Cl)c2)n2c1CCC2    61.9
CCC(=O)C1=C(O)c2cc(OC)ccc2CC1C(=O)OC (stereo not given)    13.1

Param item = `O=[N+]([O-])c1ccc2nc(=S)[nH]n2c1` ; retrieve measured growth inhibition. 58.6

Param item = `COC(=O)C(=O)c1c(-c2ccc(Cl)c(Cl)c2)[nH]c2[nH]n(-c3ccccc3)c(=O)c2c1=O` ; retrieve measured growth inhibition. 93.1

Param item = `CN(C)CC1=Nc2cccc3cccc(c23)N1` ; retrieve measured growth inhibition. 90.8

Param item = `CC(C)NCCCNc1c2ccccc2nc2cccc([N+](=O)[O-])c12` ; retrieve measured growth inhibition. 83.3

====

# test details: NCI Yeast Anticancer Drug Screen. Data for the rad18 strain (AID 177)
# stated conditions: S. cerevisiae rad18 mutant growth inhibition; at 11.0 µM; stronger effect = higher value
This is part of a sample that, as a whole, favours compounds with a hit. Of some 79,000 tested, about 15% had one in any assay.
Listed below: growth inhibition values for each entry.
Give the quantity in %, number only.

# example entries with known answers
CCCCOc1ccc2nc(C)cc(N=[N+]=[N-])c2c1    23
CCOC(=O)/C(=C/c1cccc(Cl)c1)N(CC)CC    17
CC(C)CCC[C@@H](C)[C@H]1CC[C@H]2[C@@H]3CC[C@H]4C[C@H](N)CC[C@]4(C)[C@H]3CC[C@]12C    3
COc1cc(C2C3=C(COC3=O)Oc3cc4c(cc32)OCO4)cc(OC)c1O (configuration not stated)    19
CCN(CC)CCNc1ccc(C)c2sc3ccc(O)cc3c(=O)c12    12

Param item = `COc1cc([C@@H]2c3cc4c(cc3[C@@H](NC(=O)NO)[C@H]3COC(=O)[C@H]23)OCO4)cc(OC)c1O` ; retrieve measured growth inhibition. 17

Param item = `O=C1Nc2ccc(Br)cc2C1=Nc1ccc(Cl)cc1` ; retrieve measured growth inhibition. 2

Param item = `Cc1ccc(C)c(C(=N)c2ccccc2Cc2ccccc2)c1` ; retrieve measured growth inhibition. 67

Param item = CN1C(=O)C(CC(=O)O)NC1=S (configuration not stated) ; retrieve measured growth inhibition. -9

Param item = `CCCCCc1c(CCCC)c(=O)[nH]c2cc(CNCC(OC)OC)ccc12` ; retrieve measured growth inhibition. 14

Param item = C/C(=N\OCC(O)CNCCSCc1ccccc1)c1ccccc1Cl (configuration not stated) ; retrieve measured growth inhibition. 55

Param item = `CCOC(=O)/C(=C\c1ccc(F)cc1)C(C)=O` ; retrieve measured growth inhibition. 77

Param item = OC(CC(O)(C(F)(F)F)C(F)(F)F)c1ccc(C(O)CC(O)(C(F)(F)F)C(F)(F)F)cc1 (configuration not stated) ; retrieve measured growth inhibition. 91

====

Listed below: growth inhibition values for each entry.
# test details: NCI Yeast Anticancer Drug Screen. Data for the cln2 rad14 strain (AID 165);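 note: 0% = growth equal to vehicle treated cultures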
# stated conditions: S. cerevisiae cln2 rad14 strain, at 5.0 µM (retest, dose inferred, filed as 0.5), stronger effect = higher value
# Description: Growth inhibition of yeast strains with defined genetic alterations is measured as a screen for potential anti-cancer activity. Selected strains with alterations in DNA damage repair or cell cycle control were exposed to compounds and growth inhibition was measured relative to vehicle treated controls. The strain used in this assay is cln2 rad14
This is part of a sample that, as a whole, favours compounds with a hit. Of some 79,000 tested, about 15% had one in any assay.
Give the quantity in %, number only.

Param item = `C[n+]1c(/C=C/c2ccc(/C=N/NC(=O)c3ccc(C(=O)N/N=C/c4ccc(/C=C/c5cn6ccccc6[n+]5C)cc4)cc3)cc2)cn2ccccc21` ; retrieve measured growth inhibition. 33

Param item = `CN(CCOc1ccc(Cl)cc1)CCOc1ccc(Cl)cc1` ; retrieve measured growth inhibition. 11

====

# test details: NCI Yeast Anticancer Drug Screen. Data for the CLN2oe strain (AID 163);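 note: 0% = growth of vehicle-only control cultures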
# stated conditions: S. cerevisiae CLN2oe strain, at 11.0 µM, stronger effect = higher value
This is part of a sample that, as a whole, favours compounds with a hit. Of some 79,000 tested, about 15% had one in any assay.
Listed below: growth inhibition values for each entry.
Give the quantity in %, number only.

Param item = COc1ccc2c3c1OC(C)C31CC(=O)CCC1CC2 (stereo unspecified) ; retrieve measured growth inhibition. 1

Param item = `CCC[CH2][Sn]([CH2]CCC)([CH2]CCC)/[C](=C/[Si](C)(C)c1ccccc1)c1ccc2c(c1)OCO2` ; retrieve measured growth inhibition. 92

Param item = `COC(=O)/C(C#N)=C\NC(=S)C(N)=S` ; retrieve measured growth inhibition. 96

Param item = `Cc1ccc(Nc2n[nH]c(=S)s2)c(C)c1` ; retrieve measured growth inhibition. -10

Param item = `O=C(Nc1ccc(Cl)cc1)c1cc2cc(N=Nc3ccccc3Cl)ccc2oc1=O` ; retrieve measured growth inhibition. 40

Param item = `CCCN=Cc1cc(Cc2ccc(O)c(C=NCCC)c2)ccc1O` ; retrieve measured growth inhibition. 98

====

# test details: NCI Yeast Anticancer Drug Screen. Data for the rad50 strain (AID 155);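 note: 0% = growth of vehicle-only cultures of the same strain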
# stated conditions: S. cerevisiae rad50 strain growth inhibition; at 1.2 µM; stronger effect = higher value
The panel holds about 79,000 compounds, 15% with a hit somewhere; the sample as a whole holds those more often.
observable: growth inhibition (%)
Give the quantity in %, number only.

# example entries with known answers
COc1cccc(/C=C2\S/C(=N/Nc3nc(-c4ccc([N+](=O)[O-])cc4)cs3)NC2=O)c1O    2
CCCCS(=O)(=O)Nc1ccc(Nc2c3ccccc3nc3ccccc23)c(OC)c1    39
C[n+]1c(/C=C/c2ccc(/C=N/NC(=O)c3ccc(C(=O)N/N=C/c4ccc(/C=C/c5cn6ccccc6[n+]5C)cc4)cc3)cc2)cn2ccccc21    87
CC1(c2ccccc2)O[C@@H]2C[C@H]3[C@@H]4CCC5=CC(=O)C=C[C@]5(C)[C@@]4(F)[C@@H](O)C[C@]3(C)[C@]2(C(=O)CO)O1 (stereo partly specified)    -2
Nc1ccc(N=Nc2ccc(-c3ccc(O)cc3)cc2)c2ccc(S(=O)(=O)O)cc12    1
COc1cc(OC)c(CSCC(NC(=O)OCC2c3ccccc3-c3ccccc32)C(=O)O)c(OC)c1 (stereo unspecified)    -6
CC1=CC(=C(c2ccc(N)c(C)c2)c2ccc(N)c(C)c2)C=CC1=N    21
N#CC1OB(O)c2ccccc21 (stereo unspecified)    -13
CCCCN(CCCC)c1ccc(N=Nc2ccc(S(=O)(=O)O)cc2)cc1    16
O=C1CSC(c2ccccc2)N1c1ccc(-c2ccc(-n3c(-c4ccccc4)nc4ccccc4c3=O)cc2)cc1 (stereo unspecified)    0

Param item = `COc1cc([C@@H]2c3cc4c(cc3[C@@H](NC(=O)NO)[C@H]3COC(=O)[C@H]23)OCO4)cc(OC)c1O` ; retrieve measured growth inhibition. 0

Param item = `O=C1Nc2ccc(Br)cc2C1=Nc1ccc(Cl)cc1` ; retrieve measured growth inhibition. -29

Param item = `CNC(=S)N/N=C(/C)CCC/C(C)=N/NC(=S)NC` ; retrieve measured growth inhibition. 36

Param item = `c1cc(-c2sc(-c3ccncc3)c(-c3ccncc3)c2-c2ccncc2)ccn1` ; retrieve measured growth inhibition. 10

Param item = `CC(C)=CCC/C(C)=C/CN1C(=O)C=CC1=O` ; retrieve measured growth inhibition. 7

Param item = `CN(C)CCCn1c2c3ccccc3ccc2c2oc(=O)c3ccccc3c21` ; retrieve measured growth inhibition. 0

Param item = `c1ccc2nc3c(nc2c1)sc1ccccc13` ; retrieve measured growth inhibition. 13

Param item = `O=[N+]([O-])c1cn[n+]([O-])c2ccccc12` ; retrieve measured growth inhibition. 14

Param item = `CC1(C2CC2)C(C#N)(C#N)C1(C#N)C#N` ; retrieve measured growth inhibition. -1

Param item = `CC(=O)CCC1=C(C)C(=O)C(=O)C(C)=C1O` ; retrieve measured growth inhibition. 0

Param item = `OC1(C#CI)CCCCC1` ; retrieve measured growth inhibition. -6
